System: 349418-098-R-PDC complex spheroid viability
Assay: Anticancer human tumor 349418-098-R-PDC patient-derived lung adenocarcinoma cell line growth inhibition
Settings: second compound 3.16 µM; first compound 0.316 µM; stronger effect = lower value
METRIC: viability, T/C

Example results:
- COMPOUND: "COc1cc(Nc2ncc3c(n2)-c2ccc(Cl)cc2C(c2c(F)cccc2OC)=NC3)ccc1C(=O)O + NC1CC1c1ccc(-c2cccc(O)c2)cc1"
  MEASUREMENT_TARGET: "349418-098-R-PDC complex spheroid viability"
  viability, T/C: "43.7%"
- COMPOUND: "CC1COCCN1c1cc(C2(S(C)(=N)=O)CC2)nc(-c2ccnc3[nH]ccc23)n1 (configuration not stated) + NC1CCC(NC2CC2c2ccccc2)CC1"
  MEASUREMENT_TARGET: "349418-098-R-PDC complex spheroid viability"
  viability, T/C: "53.6%"
- COMPOUND: "O=C(c1cc(Cc2n[nH]c(=O)c3ccccc23)ccc1F)N1CCN(C(=O)C2CC2)CC1 + NC1CC1c1ccc(-c2cccc(O)c2)cc1"
  MEASUREMENT_TARGET: "349418-098-R-PDC complex spheroid viability"
  viability, T/C: "101%"
- COMPOUND: "O=C(c1cc(Cc2n[nH]c(=O)c3ccccc23)ccc1F)N1CCN(C(=O)C2CC2)CC1 + NC1CCC(NC2CC2c2ccccc2)CC1"
  MEASUREMENT_TARGET: "349418-098-R-PDC complex spheroid viability"
  viability, T/C: "87%"
- COMPOUND: "COc1ccc([C@@H](O)c2cc(-c3ncnc4cc(N5CCOCC5)ccc34)c(F)cc2Cl)nn1 + NC1CC1c1ccc(-c2cccc(O)c2)cc1"
  MEASUREMENT_TARGET: "349418-098-R-PDC complex spheroid viability"
  viability, T/C: "67.9%"

IN: Give the value of viability, T/C reported for the following: CC1COCCN1c1cc(C2(S(C)(=N)=O)CC2)nc(-c2ccnc3[nH]ccc23)n1 (configuration not stated) + NC1CC1c1ccc(-c2cccc(O)c2)cc1
OUT: 115%

IN: Give the value of viability, T/C reported for the following: CC1COCCN1c1cc(-c2ccnn2C)c2ccnc(-c3ccn[nH]3)c2n1 (configuration not stated) + NC1CCC(NC2CC2c2ccccc2)CC1
OUT: 6.56%

* * *

Each entry below lists one item and its recorded viability, T/C value.
Test system: 349418-098-R-PDC complex spheroid viability
Test: Anticancer human tumor 349418-098-R-PDC cell line growth inhibition;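 further: spheroids exposed to agents for seven days before readout; 100% = DMSO vehicle control wells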
Conditions: second compound 3.16 µM; first compound 0.1 µM; stronger effect = lower value
Description: Multicellular complex tumor spheroid response to LSD1 Inhibitor Iadademstat in combination with a variety of drugs and investigational agents in selected tumor cell lines The current study was undertaken to assess response to LSD1 inhibitors in combination with standard-of-care drugs and investigational agents in solid tumor complex spheroid models as well as in the K-562 leukemia. […] Compounds. […] If the clinical Cmax for an agent had not been determined, the highest concentration tested was 10 microM. […]
Form entry: value (%) — number only.

- COMPOUND: "O=C(C=Cn1cnc(-c2cc(C(F)(F)F)cc(C(F)(F)F)c2)n1)NNc1cnccn1 + NC1CCC(NC2CC2c2ccccc2)CC1"
  READING: 4.9

IN: Give the value of viability, T/C reported for the following: CC1(C)CCC(CN2CCN(c3ccc(C(=O)NS(=O)(=O)c4ccc(NCC5CCOCC5)c([N+](=O)[O-])c4)c(Oc4cnc5[nH]ccc5c4)c3)CC2)=C(c2ccc(Cl)cc2)C1 + NC1CC1c1ccc(-c2cccc(O)c2)cc1
OUT: 109

IN: Give the value of viability, T/C reported for the following: Cn1ncnc1C1c2n[nH]c(=O)c3cc(F)cc(c23)NC1c1ccc(F)cc1 (stereo unspecified) + NC1CC1c1ccc(-c2cccc(O)c2)cc1
OUT: 103

IN: Give the value of viability, T/C reported for the following: CC[C@@]1(O)C(=O)OCc2c1cc1n(c2=O)Cc2cc3c(CN(C)C)c(O)ccc3nc2-1 + NC1CCC(NC2CC2c2ccccc2)CC1
OUT: 3.35

IN: Give the value of viability, T/C reported for the following: Cn1ncnc1C1c2n[nH]c(=O)c3cc(F)cc(c23)NC1c1ccc(F)cc1 (stereo unspecified) + NC1CCC(NC2CC2c2ccccc2)CC1
OUT: 85.9

IN: Give the value of viability, T/C reported for the following: O=C(c1cc(Cc2n[nH]c(=O)c3ccccc23)ccc1F)N1CCN(C(=O)C2CC2)CC1 + NC1CC1c1ccc(-c2cccc(O)c2)cc1
OUT: 111

* * *

Each entry below lists one item and its recorded viability, T/C value.
Tested on: 349418-098-R-PDC complex spheroid viability
Assay: Anticancer human tumor 349418-098-R-PDC cell line growth inhibition;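 further: spheroids exposed to agents for seven days before readout; 100% = DMSO vehicle control wells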
Details: second compound 10 µM; first compound 3 µM; stronger effect = lower value
Form entry: value (%) — number only.

Example results:
- COMPOUND: "CCN(c1cc(-c2ccc(CN3CCOCC3)cc2)cc(C(=O)NCc2c(C)cc(C)[nH]c2=O)c1C)C1CCOCC1 + NC1CC1c1ccc(-c2cccc(O)c2)cc1"
  METRIC: "viability, T/C"
  READING: 11.2
- COMPOUND: "COc1cc(C2c3cc4c(cc3C(OC3OC5COC(C)OC5C(O)C3O)C3COC(=O)C23)OCO4)cc(OC)c1O (stereo not drawn) + NC1CC1c1ccc(-c2cccc(O)c2)cc1"
  METRIC: "viability, T/C"
  READING: 3.47

Next compound, viability, T/C to be filled in.
IN: Give the value of viability, T/C reported for the following: NS(=O)(=O)OCC1CC(n2ccc3c(NC4CCc5ccccc54)ncnc32)CC1O (stereo not drawn) + NC1CC1c1ccc(-c2cccc(O)c2)cc1
OUT: 2.73

* * *

System: 349418-098-R-PDC complex spheroid viability
Assay: Anticancer human tumor 349418-098-R-PDC cell line growth inhibition;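 further: spheroids exposed to agents for seven days before readout; 100% = DMSO vehicle control wells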
Settings: second compound 0.1 µM; first compound 0.001 µM; stronger effect = lower value
METRIC: viability, T/C (%)
Form entry: value (%) — number only.

Example results:
- COMPOUND: "Cn1ncnc1C1c2n[nH]c(=O)c3cc(F)cc(c23)NC1c1ccc(F)cc1 (stereo not drawn) + NC1CC1c1ccc(-c2cccc(O)c2)cc1"
  READING: 105
- COMPOUND: "CC(C)CC(NC(=O)CNC(=O)c1cc(Cl)ccc1Cl)B1OC(=O)CC(CC(=O)O)(C(=O)O)O1 (stereo not drawn) + NC1CC1c1ccc(-c2cccc(O)c2)cc1"
  READING: 40.2
- COMPOUND: "CC[C@@]1(O)C(=O)OCc2c1cc1n(c2=O)Cc2cc3c(CN(C)C)c(O)ccc3nc2-1 + NC1CCC(NC2CC2c2ccccc2)CC1"
  READING: 86.5
- COMPOUND: "CC(C)CC(NC(=O)CNC(=O)c1cc(Cl)ccc1Cl)B1OC(=O)CC(CC(=O)O)(C(=O)O)O1 (stereo not drawn) + NC1CCC(NC2CC2c2ccccc2)CC1"
  READING: 22
- COMPOUND: "Cn1ncnc1C1c2n[nH]c(=O)c3cc(F)cc(c23)NC1c1ccc(F)cc1 (stereo not drawn) + NC1CCC(NC2CC2c2ccccc2)CC1"
  READING: 96
- COMPOUND: "CC[C@@]1(O)C(=O)OCc2c1cc1n(c2=O)Cc2cc3c(CN(C)C)c(O)ccc3nc2-1 + NC1CC1c1ccc(-c2cccc(O)c2)cc1"
  READING: 108

IN: Print 349418-098-R-PDC complex spheroid viability viability, T/C for CC(C)CC(NC(=O)C(Cc1ccccc1)NC(=O)c1cnccn1)B(O)O (stereo not drawn) + NC1CCC(NC2CC2c2ccccc2)CC1 .
OUT: 2.17

IN: Print 349418-098-R-PDC complex spheroid viability viability, T/C for CC(C)CC(NC(=O)C(Cc1ccccc1)NC(=O)c1cnccn1)B(O)O (stereo not drawn) + NC1CC1c1ccc(-c2cccc(O)c2)cc1 .
OUT: 1.51

* * *

Tested on: 349418-098-R-PDC complex spheroid viability
Assay: Anticancer human tumor 349418-098-R-PDC cell line growth inhibition;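 further: spheroids exposed to agents for seven days before readout; 100% = DMSO vehicle control wells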
Conditions: second compound 0.316 µM; first compound 0.0316 µM; stronger effect = lower value
METRIC: viability, T/C (%)
Form entry: value (%) — number only.

Example results:
- COMPOUND: "COc1cc(Nc2ncc3c(n2)-c2ccc(Cl)cc2C(c2c(F)cccc2OC)=NC3)ccc1C(=O)O + NC1CCC(NC2CC2c2ccccc2)CC1"
  READING: 37.7
- COMPOUND: "CC[C@@]1(O)C(=O)OCc2c1cc1n(c2=O)Cc2cc3c(CN(C)C)c(O)ccc3nc2-1 + NC1CC1c1ccc(-c2cccc(O)c2)cc1"
  READING: 4.91
- COMPOUND: "CC1COCCN1c1cc(-c2ccnn2C)c2ccnc(-c3ccn[nH]3)c2n1 (stereo not drawn) + NC1CC1c1ccc(-c2cccc(O)c2)cc1"
  READING: 8.79

IN: Give the value of viability, T/C reported for the following: COc1cc(Nc2ncc3c(n2)-c2ccc(Cl)cc2C(c2c(F)cccc2OC)=NC3)ccc1C(=O)O + NC1CC1c1ccc(-c2cccc(O)c2)cc1
OUT: 55.4

IN: Give the value of viability, T/C reported for the following: CC(C)CC(NC(=O)C(Cc1ccccc1)NC(=O)c1cnccn1)B(O)O (stereo not drawn) + NC1CCC(NC2CC2c2ccccc2)CC1
OUT: 0.64

IN: Give the value of viability, T/C reported for the following: O=C(C=Cn1cnc(-c2cc(C(F)(F)F)cc(C(F)(F)F)c2)n1)NNc1cnccn1 + NC1CC1c1ccc(-c2cccc(O)c2)cc1
OUT: 7.36

IN: Give the value of viability, T/C reported for the following: CC1COCCN1c1cc(-c2ccnn2C)c2ccnc(-c3ccn[nH]3)c2n1 (stereo not drawn) + NC1CCC(NC2CC2c2ccccc2)CC1
OUT: 18.5

IN: Give the value of viability, T/C reported for the following: CC1(C)CCC(CN2CCN(c3ccc(C(=O)NS(=O)(=O)c4ccc(NCC5CCOCC5)c([N+](=O)[O-])c4)c(Oc4cnc5[nH]ccc5c4)c3)CC2)=C(c2ccc(Cl)cc2)C1 + NC1CC1c1ccc(-c2cccc(O)c2)cc1
OUT: 113

IN: Give the value of viability, T/C reported for the following: COc1ccc([C@@H](O)c2cc(-c3ncnc4cc(N5CCOCC5)ccc34)c(F)cc2Cl)nn1 + NC1CC1c1ccc(-c2cccc(O)c2)cc1
OUT: 104

IN: Give the value of viability, T/C reported for the following: CC[C@@]1(O)C(=O)OCc2c1cc1n(c2=O)Cc2cc3c(CN(C)C)c(O)ccc3nc2-1 + NC1CCC(NC2CC2c2ccccc2)CC1
OUT: 5.09

IN: Give the value of viability, T/C reported for the following: O=C(c1cc(Cc2n[nH]c(=O)c3ccccc23)ccc1F)N1CCN(C(=O)C2CC2)CC1 + NC1CC1c1ccc(-c2cccc(O)c2)cc1
OUT: 111

IN: Give the value of viability, T/C reported for the following: CC(C)CC(NC(=O)C(Cc1ccccc1)NC(=O)c1cnccn1)B(O)O (stereo not drawn) + NC1CC1c1ccc(-c2cccc(O)c2)cc1
OUT: 0.45

IN: Give the value of viability, T/C reported for the following: CC(C)CC(NC(=O)CNC(=O)c1cc(Cl)ccc1Cl)B1OC(=O)CC(CC(=O)O)(C(=O)O)O1 (stereo not drawn) + NC1CCC(NC2CC2c2ccccc2)CC1
OUT: 1.73

FYI, the data here is from PubChem BioAssay AID1918936.
